B1: CCDC6 (parent)
chain: FTPPTSLTRAGMSYYNSPGLHVQH

- Variants of: B1
- Assay details: protein stability index of a GFP-peptide fusion (GPS, HEK-293T) (PSI 1-6); higher = more stable;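 note: lentivirally expressed fusions sorted by FACS into six bins by GFP to DsRed ratio, PSI derived from sequencing read proportions per bin multiplied by bin number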
- Experimental conditions: c terminus: a fixed tail appended
# protein stability index >= 2 gives True, anything below gives False

A10M: False

Is the recorded value of protein stability index equal to or greater than 2 for this variant? R9I
False

Is the recorded value of protein stability index equal to or greater than 2 for this variant? H24C
False

Is the recorded value of protein stability index equal to or greater than 2 for this variant? M12W
True

Reference source: the supplement of paper PMC10567573
